- target: T1, rabbit TF ECD-His (TF-His) protein (rabbit (Oryctolagus cuniculus), UniProt P24055 33-250)
- T1 construct: also called rabbit TF-His
- T1 sequence (P24055 other isoform, or with tags, fused parts or gaps): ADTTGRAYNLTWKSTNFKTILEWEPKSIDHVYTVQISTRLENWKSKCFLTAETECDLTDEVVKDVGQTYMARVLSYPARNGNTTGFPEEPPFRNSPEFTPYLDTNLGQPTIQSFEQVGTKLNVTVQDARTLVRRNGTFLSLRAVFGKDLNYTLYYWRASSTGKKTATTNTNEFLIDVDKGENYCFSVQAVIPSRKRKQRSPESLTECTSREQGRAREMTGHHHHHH
- test-name: Biacore; antibody captured by anti-human IgG on CM5 chip, titration of rabbit TF-His, 1:1 model

>  <binder>
anti-TF antibody 43D8 (antibody, human IgG1, V domains shown, Human IgG1) VH: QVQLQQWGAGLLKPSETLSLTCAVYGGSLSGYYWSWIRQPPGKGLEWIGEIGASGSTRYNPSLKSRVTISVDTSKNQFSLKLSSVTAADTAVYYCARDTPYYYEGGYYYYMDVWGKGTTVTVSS VL: EIVLTQSPGTLSLSPGERATLSCRASQSVSSSFLAWYQQKPGQAPRLLIYGAYSRATGIPDRFSGSGSGTDFTLTISRLEPEDFAVYYCQQAGVVPYTFGGGTKVEIK

>  <Kd, nM>
7.7

$$$$
>  <binder>
anti-TF antibody 25A5 (antibody, human IgG1, V domains shown, Human IgG1) VH: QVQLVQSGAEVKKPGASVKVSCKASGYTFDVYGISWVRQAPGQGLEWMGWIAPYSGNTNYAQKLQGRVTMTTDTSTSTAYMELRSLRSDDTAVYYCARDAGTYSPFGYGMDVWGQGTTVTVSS VL: DIQMTQSPSTLSASVGDRVTITCRASESISNWLAWYQQKPGKAPKLLIYKAYSLEYGVPSRFSGSGSGTEFTLTISSLQPDDFATYYCQQFQKLPPFTFGGGTKVEIK

>  <Kd, nM>
5.4

$$$$
>  <binder>
anti-TF antibody 43D7 (antibody, human IgG1, V domains shown, Human IgG1) VH: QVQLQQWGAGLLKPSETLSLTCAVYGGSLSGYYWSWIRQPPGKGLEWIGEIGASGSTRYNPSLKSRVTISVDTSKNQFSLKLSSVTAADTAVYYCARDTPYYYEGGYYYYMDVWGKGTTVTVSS VL: EIVLTQSPGTLSLSPGERATLSCRASDSVDSSYLAWYQQKPGQAPRLLIYGAFSRANGIPDRFSGSGSGTDFTLTISRLEPEDFAVYYCQQAGVVPYTFGGGTKVEIK

>  <Kd, nM>
6.8

$$$$
>  <binder>
anti-TF antibody 25G1 (antibody, human IgG1, V domains shown, Human IgG1) VH: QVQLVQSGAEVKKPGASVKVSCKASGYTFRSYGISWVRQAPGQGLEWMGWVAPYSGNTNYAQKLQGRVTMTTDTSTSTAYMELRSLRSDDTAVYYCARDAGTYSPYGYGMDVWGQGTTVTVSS VL: DIQMTQSPSTLSASVGDRVTITCRASHSIDSWLAWYQQKPGKAPKLLIYKASYLESGVPSRFSGSGSGTEFTLTISSLQPDDFATYYCQLFQSLPPFTFGGGTKVEIK

>  <Kd, nM>
3.6

$$$$
>  <binder>
anti-TF antibody 25G (antibody, human IgG1, V domains shown, Human IgG1) VH: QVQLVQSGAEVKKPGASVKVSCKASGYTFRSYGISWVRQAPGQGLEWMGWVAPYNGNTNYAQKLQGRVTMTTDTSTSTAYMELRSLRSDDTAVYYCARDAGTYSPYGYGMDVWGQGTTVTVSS VL: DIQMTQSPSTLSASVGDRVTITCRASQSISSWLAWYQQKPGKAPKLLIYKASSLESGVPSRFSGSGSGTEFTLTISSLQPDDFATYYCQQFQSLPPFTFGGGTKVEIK

>  <Kd, nM>
75.5

$$$$
